As shown below, each of these binders has a reported hGIPR cAMP EC50 ratio value.
Target: T1, human gastric inhibitory peptide receptor (GIPR) (human, UniProt P48546 22-466)
T1 sequence (looked up): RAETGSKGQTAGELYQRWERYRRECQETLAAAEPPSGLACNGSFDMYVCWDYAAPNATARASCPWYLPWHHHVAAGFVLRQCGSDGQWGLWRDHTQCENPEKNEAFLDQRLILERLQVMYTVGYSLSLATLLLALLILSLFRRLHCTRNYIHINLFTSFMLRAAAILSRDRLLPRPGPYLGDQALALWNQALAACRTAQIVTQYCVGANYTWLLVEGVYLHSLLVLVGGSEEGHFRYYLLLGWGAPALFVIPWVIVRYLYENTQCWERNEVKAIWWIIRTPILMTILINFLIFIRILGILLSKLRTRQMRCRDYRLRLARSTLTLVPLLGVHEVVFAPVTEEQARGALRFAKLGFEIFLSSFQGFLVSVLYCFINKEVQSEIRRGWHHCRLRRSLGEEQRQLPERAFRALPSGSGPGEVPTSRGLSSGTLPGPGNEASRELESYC
Assay: cell-based or functional assay
Numbered stars: 1 amine (or outer) side, 2 acyl side, 3 side chain; on linkers, the order of the positions; unused ones are H or OH. Square brackets hold non-standard residues; d marks the D form. Side chains are listed from the residue outwards. Ends that are not written are not given here. * marks the point of attachment. C20 diacid = O=C(O)CCCCCCCCCCCCCCCCCCC(=O)*; αMePhe(2-F) = C[C@](N)(Cc1ccccc1F)C(=O)O; γGlu = O=C(O)[C@H](CCC(=O)[*:2])N[*:1]; αMeF = C[C@](N)(Cc1ccccc1)C(=O)O; cTA = not defined here; AEEA = NCCOCCOCC(=O)O; Aib = CC(C)(N)C(=O)O
Response field accepts a number only; no unit should be typed.

In the examples that follow, each entry is paired with its recorded hGIPR cAMP EC50 ratio.
binder	quantitative.result
YXEGTXTSDXSIXLDEKAQXEFIXYLIEGGPSSGAPPPS (Y-Aib-EGT-αMeF(2F)-TSD-4Pal-SI-αMeF-LDEK((2-[2-(2-Amino-ethoxy)-ethoxy]-acetyl)2-(γ-Glu)-CO-(CH2)18-CO2H)AQ-Aib-EFI-Aib-YLIEGGPSSGAPPPS-NH2) [Example 189]	2.41
Y[Aib][cTA]GT[αMeF]TSDYSIXLDEK([AEEA-AEEA-γGlu-C20 diacid])AQ[Aib]AFIEYLIEGGPSSGAPPPS-NH2 (not fully specified (residue 13); printed as Y-Aib-cTA-GT-αMeF-TSDYSI-αMeF-LDEK((2-[2-(2-Amino-ethoxy)-ethoxy]-acetyl)2-(γ-Glu)-CO-(CH2)18-CO2H)AQ-Aib-AFIEYLIEGGPSSGAPPPS-NH2) [Example 120]	1.67

Bench note: what hGIPR cAMP EC50 ratio did Y[Aib]EGT[αMePhe(2-F)]TSDYSIXLDEKAQ[Aib]EFI[Aib]YLIEGGPSSGAPPPS-NH2 (not fully specified (residues 13, 17); printed as Y-Aib-EGT-αMeF(2F)-TSDYSI-αMeF-LDEK((2-[2-(2-Amino-ethoxy)-ethoxy]-acetyl)2-(γ-Glu)-CO-(CH2)18-CO2H)AQ-Aib-EFI-Aib-YLIEGGPSSGAPPPS-NH2) [Example 152] show?
2.57

Data request, read-out hGIPR cAMP EC50 ratio, for YXEGTXTSDHSILLDKKAQXAFIEYLIEGGPSSGAPPPS (Y-Aib-EGT-αMeF-TSDHSILLDKK((2-[2-(2-Amino-ethoxy)-ethoxy]-acetyl)2-(γ-Glu)-CO-(CH2)18-CO2H)AQ-Aib-AFIEYLIEGGPSSGAPPPS-NH2) [Example 128]
2.46
